Assay: DRUGMATRIX: Glutamate, AMPA radioligand binding (ligand: [3H] AMPA)
Type: cell membranes, Rattus norvegicus, Wistar, Cerebral cortex, Membrane
Settings: Not Active = under 50% inhibition at 10 µM
measurement-name: IC50

>  <compound>
C[C@H](CCC(=O)O)[C@H]1CC[C@H]2[C@@H]3[C@H](O)C[C@@H]4C[C@H](O)CC[C@]4(C)[C@H]3C[C@H](O)[C@]12C [CHOLIC ACID]

>  <IC50>
Not Active

$$$$
>  <compound>
Cc1oncc1C(=O)Nc1ccc(C(F)(F)F)cc1 [LEFLUNOMIDE]

>  <IC50>
Not Active

$$$$
>  <compound>
C1CCC(C(CC2CCCCN2)C2CCCCC2)CC1 (stereo not drawn) [PERHEXILINE]

>  <IC50>
Not Active

$$$$
>  <compound>
C[C@]12CCC(=O)C=C1CC[C@@H]1[C@@H]2CC[C@@]2(C)[C@H]1CC[C@]2(C)O [METHYLTESTOSTERONE]

>  <IC50>
Not Active

$$$$
>  <compound>
Cc1ccc2cc3c(ccc4ccccc43)c3c2c1CC3 [3-METHYLCHOLANTHRENE]

>  <IC50>
Not Active

$$$$
>  <compound>
c1ccc([C@H]2CN3CCSC3=N2)cc1 [LEVAMISOLE]

>  <IC50>
Not Active

$$$$
>  <compound>
CNNCc1ccc(C(=O)NC(C)C)cc1 [PROCARBAZINE]

>  <IC50>
Not Active

$$$$

*Q* State, in one line, measured IC50 of C=CCC1(C(C)CCC)C(=O)NC(=O)NC1=O (stereo not drawn) [SECOBARBITAL]
*A* Not Active

###

Assay: DRUGMATRIX: Phosphodiesterase PDE3 enzyme inhibition (substrate: [3H]cAMP + cAMP)
Type: tissue-based, Homo sapiens
Details: platelet; Not Active = under 50% inhibition at 10 µM
*1 amine or outer side, *2 acyl side, *3 side chain or, on linkers, in order; H or OH if unused. Where a SMILES comes first, the peptide text is derived from it. Bridges are numbered along the chain shown (N, C = ends). Roman numbers before positions name the chains, in order. [ ]: non-standard residue; d: D form. Actinocin(1to9) = Cc1c2oc3c(C)ccc(C(=O)[*:2])c3nc-2c(C(=O)[*:1])c(N)c1=O; NMeV = CN[C@H](C(=O)O)C(C)C; Sar = CNCC(=O)O
measurement-name: Ki

Record excerpt, results attached:
>  <molecule>
C[C@H](CS)C(=O)N1CCC[C@H]1C(=O)O

>  <Ki>
Not Active

$$$$
>  <molecule>
Cc1c2oc3c(C)ccc(C(=O)N[C@@H]4C(=O)N[C@H](C(C)C)C(=O)N5CCC[C@H]5C(=O)N(C)CC(=O)N(C)[C@@H](C(C)C)C(=O)O[C@@H]4C)c3nc-2c(C(=O)N[C@@H]2C(=O)N[C@H](C(C)C)C(=O)N3CCC[C@H]3C(=O)N(C)CC(=O)N(C)[C@@H](C(C)C)C(=O)O[C@@H]2C)c(N)c1=O [DACTINOMYCIN] (I: T[dV]P[Sar][NMeV] / II: T[dV]P[Sar][NMeV]; ester I:1-I:C, II:1-II:C; linker I:N-II:N via Actinocin(1to9))

>  <Ki>
Not Active

$$$$
>  <molecule>
Cc1noc(NS(=O)(=O)c2ccc(N)cc2)c1C

>  <Ki>
Not Active

$$$$
>  <molecule>
N[C@@H](Cc1ccc(N(CCCl)CCCl)cc1)C(=O)O

>  <Ki>
Not Active

$$$$

*Q* State, in one line, measured Ki of NC(=O)N1c2ccccc2CCc2ccccc21
*A* Not Active

*Q* State, in one line, measured Ki of Cc1ccc(N(CC2=NCCN2)c2cccc(O)c2)cc1
*A* Not Active

*Q* State, in one line, measured Ki of CO[C@H]1/C=C/O[C@@]2(C)Oc3c(C)c(O)c4c(O)c(c(/C=N/N5CCN(C)CC5)c(O)c4c3C2=O)NC(=O)/C(C)=C\C=C\[C@H](C)[C@H](O)[C@@H](C)[C@@H](O)[C@@H](C)[C@H](OC(C)=O)[C@@H]1C
*A* Not Active

*Q* State, in one line, measured Ki of N[C@@H](Cc1ccc(O)c(O)c1)C(=O)O
*A* Not Active

*Q* State, in one line, measured Ki of CNCCc1ccccn1
*A* Not Active

###

Assay: DRUGMATRIX: Leukotriene, BLT (LTB4) radioligand binding (ligand: [3H]LTB4)
Assay type: cell membranes, Membrane
Settings: u-937; Not Active = under 50% inhibition at 10 µM
measurement-name: Ki

Record excerpt, results attached:
>  <molecule>
Nc1c(Br)cc(Br)cc1CN[C@H]1CC[C@H](O)CC1

>  <Ki>
Not Active

$$$$
>  <molecule>
Cc1c(C)c2c(c(C)c1O)CCC(C)(COc1ccc(CC3SC(=O)NC3=O)cc1)O2 (stereo unspecified)

>  <Ki>
Not Active

$$$$
>  <molecule>
NC(=O)N1c2ccccc2CCc2ccccc21

>  <Ki>
Not Active

$$$$
>  <molecule>
CC1CC(OC(=O)C(O)c2ccccc2)CC(C)(C)C1 (stereo unspecified) [CYCLANDELATE]

>  <Ki>
Not Active

$$$$

*Q* State, in one line, measured Ki of Nc1nc2nc[nH]c2c(=S)[nH]1
*A* Not Active

*Q* State, in one line, measured Ki of CC(O)CO (stereo unspecified)
*A* Not Active

*Q* State, in one line, measured Ki of NC[C@H]1CC[C@H](C(=O)O)CC1
*A* Not Active

*Q* State, in one line, measured Ki of c1ccc(Nc2ccc(Nc3ccccc3)cc2)cc1
*A* Not Active

*Q* State, in one line, measured Ki of CNCCCN1c2ccccc2CCc2ccccc21
*A* Not Active

*Q* State, in one line, measured Ki of CC(C)C(=O)Nc1ccc([N+](=O)[O-])c(C(F)(F)F)c1 [FLUTAMIDE]
*A* Not Active

*Q* State, in one line, measured Ki of CC(C)C(Br)C(=O)NC(N)=O (stereo unspecified)
*A* Not Active

###

Target: Alpha-1A adrenergic receptor (Rattus norvegicus, UniProt P43140)
Sequence (P43140 whole entry): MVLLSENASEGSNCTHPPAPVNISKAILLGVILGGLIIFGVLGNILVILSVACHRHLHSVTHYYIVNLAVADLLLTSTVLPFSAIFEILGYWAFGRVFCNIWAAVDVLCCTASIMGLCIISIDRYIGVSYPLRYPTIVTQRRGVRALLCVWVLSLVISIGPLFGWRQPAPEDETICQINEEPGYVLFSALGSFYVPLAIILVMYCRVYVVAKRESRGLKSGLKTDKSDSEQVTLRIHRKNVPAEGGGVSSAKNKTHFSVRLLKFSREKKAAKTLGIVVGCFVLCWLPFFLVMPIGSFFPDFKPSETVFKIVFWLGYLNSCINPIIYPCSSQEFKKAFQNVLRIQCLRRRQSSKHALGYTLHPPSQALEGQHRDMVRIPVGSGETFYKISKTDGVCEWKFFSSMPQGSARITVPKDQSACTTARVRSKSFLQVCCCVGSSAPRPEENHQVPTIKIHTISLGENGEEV
Experiment: DRUGMATRIX: Alpha-1A adrenergic receptor radioligand binding (ligand: prazosin)
Assay type: cell membranes, Wistar, Submaxillary gland, Membrane
Conditions: Not Active = under 50% inhibition at 10 µM
measurement-name: IC50

>  <compound>
CCCOc1ccccc1-c1nc2nn[nH]c2c(=O)[nH]1

>  <assay-target>
Alpha-1A adrenergic receptor (Rattus norvegicus, UniProt P43140)

>  <measurement-name>
IC50

>  <meas-value>
Not Active

$$$$
>  <compound>
CC1CC(OC(=O)C(O)c2ccccc2)CC(C)(C)C1 (centres undefined) [CYCLANDELATE]

>  <assay-target>
Alpha-1A adrenergic receptor (Rattus norvegicus, UniProt P43140)

>  <measurement-name>
IC50

>  <meas-value>
Not Active

$$$$
>  <compound>
C[C@@H]1CN(c2c(F)c(N)c3c(=O)c(C(=O)O)cn(C4CC4)c3c2F)C[C@H](C)N1

>  <assay-target>
Alpha-1A adrenergic receptor (Rattus norvegicus, UniProt P43140)

>  <measurement-name>
IC50

>  <meas-value>
Not Active

$$$$
>  <compound>
Nc1nc(N)nc(-c2cc(Cl)ccc2Cl)n1.O=C(O)/C=C\C(=O)O [IRSOGLADINE MALEATE]

>  <assay-target>
Alpha-1A adrenergic receptor (Rattus norvegicus, UniProt P43140)

>  <measurement-name>
IC50

>  <meas-value>
Not Active

$$$$
>  <compound>
Nc1ncn([C@@H]2O[C@H](CO)[C@@H](O)[C@H]2O)c(=O)n1

>  <assay-target>
Alpha-1A adrenergic receptor (Rattus norvegicus, UniProt P43140)

>  <measurement-name>
IC50

>  <meas-value>
Not Active

$$$$

*Q* State, in one line, measured IC50 of NC1=NC(=O)C(c2ccccc2)O1 (centres undefined)
*A* Not Active

*Q* State, in one line, measured IC50 of CC1(C)S[C@@H]2[C@H](NC(=O)Cc3ccccc3)C(=O)N2[C@H]1C(=O)O
*A* Not Active

*Q* State, in one line, measured IC50 of c1ccc2c(c1)c1cccc3ccc4cccc2c4c31 [BENZO[E]PYRENE]
*A* Not Active

*Q* State, in one line, measured IC50 of Cc1noc(NS(=O)(=O)c2ccc(N)cc2)c1C
*A* Not Active

###

Experiment: DRUGMATRIX: Interleukin IL-1 radioligand binding (ligand: [125I] interleukin 1beta)
Type: cell membranes, Membrane
Settings: nih3t3; Not Active = under 50% inhibition at 10 µM
measurement-name: Ki

Record excerpt, results attached:
>  <compound>
Cc1ccc(-c2cc(C(F)(F)F)nn2-c2ccc(S(N)(=O)=O)cc2)cc1

>  <Ki>
Not Active

$$$$
>  <compound>
Cc1ccccc1N1C(=O)c2cc(S(N)(=O)=O)c(Cl)cc2NC1C (stereo not drawn)

>  <Ki>
Not Active

$$$$
>  <compound>
CC(O)CO (stereo not drawn)

>  <Ki>
Not Active

$$$$
>  <compound>
N[C@@H](Cc1ccc(O)c(O)c1)C(=O)O

>  <Ki>
Not Active

$$$$
>  <compound>
Cc1cccc(N(C)C(=S)Oc2ccc3ccccc3c2)c1 [TOLNAFTATE]

>  <Ki>
Not Active

$$$$

*Q* State, in one line, measured Ki of C[C@H]1c2cccc(O)c2C(=O)C2=C(O)[C@]3(O)C(=O)C(C(N)=O)=C(O)[C@@H](N(C)C)[C@@H]3[C@@H](O)[C@@H]21.O
*A* Not Active

*Q* State, in one line, measured Ki of Nc1nc2c(ncn2CCC(CO)CO)c(=O)[nH]1
*A* Not Active

*Q* State, in one line, measured Ki of CCCCc1nc(Cl)c(CO)n1Cc1ccc(-c2ccccc2-c2nnn[nH]2)cc1
*A* Not Active
